Counter-ions that a name gives are not always drawn.
observation.type: melting point

>>> print(df.to_string())
                                   molecule         result
0  O=C(O)[C@@H]1CN(CCn2c(=O)ccc3c(F)cc(F)cc32)CC[C@H]1NC/C=C/c1cc(F)ccc1F (as salt: hydrochloride)       > 205 °C
1  O=C(O)[C@@H]1CN(CCn2c(=O)ccc3c(F)cc(F)cc32)CC[C@H]1NCc1cc2c(cn1)OCCO2 (as salt: hydrochloride)       > 190 °C
2  N#Cc1ccc2ccc(=O)n(CCN3CCC(NCc4ccc5c(n4)NC(=O)CO5)CC3)c2c1         212 °C
3  O=C1COc2ccc(CNC3CCN(CCn4c(=O)ccc5ccc(F)c(F)c54)CC3)nc2N1 (as salt: salt)  158 to 170 °C
4  COc1ccc2c(=O)ccn(CCN3CCC(NCc4cc5c(cn4)OCCO5)CC3)c2c1 (as salt: hydrochloride)         260 °C
5  O=C(O)[C@H]1CN(CCn2c(=O)ccc3c(F)cc(F)cc32)CC[C@H]1NC/C=C/c1cc(F)ccc1F (as salt: hydrochloride)  150 to 180 °C

###

Structures can show the parent of a compound that is named as a salt.
observation.type: melting point

                                   compound  observation_type           result
0  O=C1COc2ccc(CNC3CCN(CCn4c(=O)ccc5ccc(F)cc54)CC3)nc2N1 (as salt: salt)     melting point    150 to 155 °C
1  O=c1ccc2ccc(F)cc2n1CCN1CCC(NCc2cc3c(cn2)OCCO3)CC1 (as salt: HCl)     melting point  > 275 °C (dec.)
2  O=C1COc2ccc(CNC3CCN(CCn4c(=O)ccc5c(F)cc(F)cc54)CC3)nc2N1 (as salt: salt)     melting point    170 to 180 °C
3  COC(=O)c1cc2ccc(OC)cc2n1CCN1CCC(NCc2cc3c(cn2)OCCO3)CC1     melting point           130 °C

###

Target: DNA gyrase (Escherichia coli, UniProt P0AES4+P0AES6)
Sequence (P0AES4 whole entry, one chain of several): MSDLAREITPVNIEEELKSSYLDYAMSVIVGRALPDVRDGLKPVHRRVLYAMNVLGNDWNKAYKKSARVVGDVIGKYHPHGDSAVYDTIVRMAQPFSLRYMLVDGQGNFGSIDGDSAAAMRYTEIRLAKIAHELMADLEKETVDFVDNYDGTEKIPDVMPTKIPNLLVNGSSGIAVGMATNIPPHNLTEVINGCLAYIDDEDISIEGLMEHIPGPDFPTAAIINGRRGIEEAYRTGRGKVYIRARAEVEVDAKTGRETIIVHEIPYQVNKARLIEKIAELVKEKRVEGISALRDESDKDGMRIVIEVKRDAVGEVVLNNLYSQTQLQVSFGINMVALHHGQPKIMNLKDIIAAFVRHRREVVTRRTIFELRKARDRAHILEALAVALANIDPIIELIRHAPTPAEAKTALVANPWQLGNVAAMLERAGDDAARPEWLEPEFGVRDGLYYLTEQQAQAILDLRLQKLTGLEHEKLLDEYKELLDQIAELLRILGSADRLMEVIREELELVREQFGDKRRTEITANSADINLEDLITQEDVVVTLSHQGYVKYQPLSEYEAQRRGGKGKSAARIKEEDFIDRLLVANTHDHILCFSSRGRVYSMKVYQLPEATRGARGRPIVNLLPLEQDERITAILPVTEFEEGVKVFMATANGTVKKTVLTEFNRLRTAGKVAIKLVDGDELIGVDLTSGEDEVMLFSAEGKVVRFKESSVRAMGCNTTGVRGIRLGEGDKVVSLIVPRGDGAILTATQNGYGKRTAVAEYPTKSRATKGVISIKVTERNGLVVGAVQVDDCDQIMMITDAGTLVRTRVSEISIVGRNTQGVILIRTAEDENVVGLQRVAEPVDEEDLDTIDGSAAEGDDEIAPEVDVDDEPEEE
Assay: Supercoiling assay: inhibition of Escherichia coli DNA supercoiling activity
Assay type: biochemical
observation.type: IC50 (µM)

>>> df
                                   compound                           subject_of_test  unit_of_measure  result
0  O=C1COc2ccc(F)cc2N1CCN1CCC(NCc2cc3c(cn2)OCCO3)CC1 [Example 26]  DNA gyrase (Escherichia coli, UniProt P0AES4+P0AES6)               µM   0.949
1  O=C1COc2ccccc2N1CCN1CCC(NCc2cc3c(cn2)OCCO3)CC1 [Example 49]  DNA gyrase (Escherichia coli, UniProt P0AES4+P0AES6)               µM    7.07

###

Target: GyrB ATPase (Escherichia coli, UniProt P0AES4+P0AES6)
Assay: ATPase assay: inhibition of GyrB ATPase activity, ammonium molybdate/malachite green phosphate detection
Assay type: biochemical, E. coli
observation.type: IC50 (nM)

                                   compound                           subject_of_test  result
0  N#Cc1ccc2c(c1)N(CCN1CCC(NC/C=C/c3cc(F)ccc3F)CC1)C(=O)CO2 [Example 37]  GyrB ATPase (Escherichia coli, UniProt P0AES4+P0AES6)    17.7
